assayedTarget: T1, coreROQ (Roquin, murine/human) (Mus musculus, UniProt Q4VGL6 171-326)
T1 sequence: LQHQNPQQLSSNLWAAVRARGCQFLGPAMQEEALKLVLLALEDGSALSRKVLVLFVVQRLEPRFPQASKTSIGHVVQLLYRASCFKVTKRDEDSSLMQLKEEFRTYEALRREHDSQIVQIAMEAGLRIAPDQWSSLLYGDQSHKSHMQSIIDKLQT
assayText: EMSA
pKd: −log10 of the molar value.
Form field: pKd (one value per entry).
assayReadout: pKd

>  <binder>
GCCCUGUGCCGUUUUAGGCGCUCCUGGGC (structured_RNA) [DK (dolphin/killer whale Ox40 ADE)]

>  <assayReadout>
pKd

>  <reportedResult>
6.32

$$$$
>  <binder>
GCCUGCCAGUCCACACCGUUCUAGGUGCUGGGCUGGCUCUGGGC (structured_RNA) [delta-bulge]

>  <assayReadout>
pKd

>  <reportedResult>
6.52

$$$$
>  <binder>
GCCUGCCAGUACCCUCCACACCGUUCUAGGUGCUGGGCUGGCUCUGGGC (structured_RNA) [MM (murine Ox40 ADE wt)]

>  <assayReadout>
pKd

>  <reportedResult>
6.51

$$$$
>  <binder>
GCCUGUAAGUACCCUCUACACCGUUCUAGGUGCUAGGCUUACUCUGGGC (structured_RNA) [dstem2]

>  <assayReadout>
pKd

>  <reportedResult>
6.35

$$$$
>  <binder>
GGCGAACAGUGCAGCGUUCUAGCUGCCCUUCGCU (structured_RNA) [HS low pur.]

>  <assayReadout>
pKd

>  <reportedResult>
6.36

$$$$
>  <binder>
GCCUGCCAGUCCACACCGUUCUAGGUGCUGGACCCUGCUGGCUCUGGGC (structured_RNA) [MM 3'bulge]

>  <assayReadout>
pKd

>  <reportedResult>
6.62

$$$$
>  <binder>
GUCCCCUCUGCGCCGUUUUAGGCGUUUCUGGGCUGGC (structured_RNA) [EL (elephant Ox40 ADE)]

>  <assayReadout>
pKd

>  <reportedResult>
6.27

$$$$
>  <binder>
GGCCAUCUGCACCGUUCUAGGUGCCGAACUGGCU (structured_RNA) [HS 3'bulge]

>  <assayReadout>
pKd

>  <reportedResult>
6.53

$$$$
>  <binder>
GCCUGUAAGUACCCUCCACACCGUUCUAGGUGCUGGGCUUACUCUGGGC (structured_RNA) [dstem1]

>  <assayReadout>
pKd

>  <reportedResult>
6.42

$$$$
>  <binder>
GGCCAACUCUGCACCGUUCUAGGUGCCGAUGGCU (structured_RNA) [HS (human Ox40 ADE wt)]

>  <assayReadout>
pKd

>  <reportedResult>
6.53

$$$$
>  <binder>
GCACCCUCCCACACCGUUUUAGGUGUUCUGGGUG (structured_RNA) [HE (hedgehog Ox40 ADE)]

>  <assayReadout>
pKd

>  <reportedResult>
6.50

$$$$
